Reference for the values: patent US20250368734A1

Molecular target: T1, cynomolgus monkey GPRC5D (cynomolgus monkey)
T1 construct: whole, on cells; HEK293T-cynoGPRC5D cells; also called cynoGPRC5D
Test: FACS, HEK293T-cynoGPRC5D cells
Observable: % Positive (%)
Enter your answer as a number in %; do not include the unit.

{"Binder": "108C4C12 (antibody, V domains shown, Mouse monoclonal antibody from hybridoma subclone) VH: EVQLQQSGPELVKPGASVKMSCKASGYTFTSYVIHWVKQKTGQGLEWIGYFNPYNDGTKYNEEFKGKATLTSDKSSNTAYMELNSLTSDDSAVYFCARGGVRRYFDVWGAGTTVTVSS VL: DIQMTQSPSSLSASLGERVSLTCRASQDIGSNLNWLQQEPDGTIKRLIYATFGLDSGVPKRFSGSRSGSDYSLTISSLESEDFVDYYCQQYASFPYTFGGGTKLEIK", "% Positive [%]": 59.1}

Now examine the next entry.
So, 82A1C10 (antibody, V domains shown, Mouse monoclonal antibody from hybridoma subclone) VH: QVQLKESGPGLVAPSQSLSITCTVSGFSLTNYAVTWVRQPPGKGLEWLGVIWGDGSTYYHSALVSRLSITKDNSRTQVLLKLNSLQTDDTARYYCAKGGYSPFAYWGQGTLVTVSA VL: DVVMTQTPLSLPVSLGDQASISCRSSQSLVHSNGNTYLHWYLQKPGQSPKLLIFKVSNRFSGVPDRFSGSGSGTDFTLKISRVEAEDLGVYFCSQNTHVPFTFGSGTKLEIK ? Its % Positive was 94.2
